Below, each entry is listed with its recorded drug sensitivity score.
- Test system: MDA-MB-453
- method: drug sensitivity score (DSS), in combination with BLU9931 (DSS (weighted AUC score)); higher = more sensitive (stronger viability decrease); extreme values may be limits of the assay
- conditionParameters: BLU9931 100 nM; 72 h
Keep it simple and answer with nothing but the number.

Check out these entries, answers already filled in.
[[record]]
compound = "O=C(NC1CCNCC1)c1n[nH]cc1NC(=O)c1c(Cl)cccc1Cl [AT7519]"
testvalue = 14.6

[[record]]
compound = "CNC(=O)c1cccc(-c2ccc3c(N4CCOC[C@@H]4C)nc(N4CCOC[C@@H]4C)nc3n2)c1 [Vistusertib]"
testvalue = 16.9

[[record]]
compound = "N#Cc1ccc2[nH]c(O)c(-c3ccc(CN4CCOCC4)cn3)c2c1 [AZD-1080]"
testvalue = 0

[[record]]
compound = "Cn1c(=O)n(-c2ccc(C(C)(C)C#N)cc2)c2c3cc(-c4cnc5ccccc5c4)ccc3ncc21 [Dactolisib]"
testvalue = 18.3

[[record]]
compound = "C1=N/C2=N/c3ccc(OCCN4CCCC4)c(c3)COC/C=C/COCc3cccc(c3)C(=C1)N2 [Pacritinib]"
testvalue = 10

[[record]]
compound = "Nc1nc2cc(-c3ccc4ncc(C(=O)N5CCOCC5)n4c3)ccc2o1 [Serabelisib]"
testvalue = 9.8

[[record]]
compound = "Oc1ncnc2[nH]ncc12 [Allopurinol]"
testvalue = 0.3


Next compound, drug sensitivity score to be filled in.
Prompt: Provide measured drug sensitivity score value, entry: Cc1cn(-c2cc(NC(=O)c3ccc(C)c(Nc4nccc(-c5cnccn5)n4)c3)cc(C(F)(F)F)c2)cn1 [Radotinib]
Completion: 2.4
